Tested on: MS2 coat protein
test: apparent KD of MS2 coat protein; higher = weaker reporter binding
protocol-conditions: Eterna round: R107; input ligand: arginine 13.2 mM
Grouping by measured apparent KD of MS2 coat protein is done with the following cut points: category 1: < 30 nM; category 2: ≥ 30 nM and < 80 nM; category 3: ≥ 80 nM

(Q) Category of ACUAGCGCACAUGAUACCAGCGACAUGAGGAUCACCCAUGUACGGCGUGUAUCGAAAGGUUGCCCUUGGCAGCAUGAUAGCGCUG [Cebiri] :
(A) category 1

(Q) Which class does GGCUGUCAUAGGAGGUGAAAUAUACUCGAAGGAGCGUCAUAGUAGGCAGGUAGGUCGCGAGACAUGAGGAUCACCCAUGUAGAGA [yyumullin] fall in?
(A) category 2

(Q) Tag the class for ACGAAACAAGCGGCCGCCACUUCGUGGUGCUAAGGCUUGAUACUACAUGAGGAUCACCCAUGUCGAAGGACCGGGCUUGCGACUG [theeternabot_sameState_MS2_Trp_B_33]
(A) category 2

(Q) Note: place this sequence into its band. Item: AAUAAACAUGAGGAUCACCCAUGUAUGGAAGGAGCGGUGAAUAAACCAGGUAGGUCGCCAGUGUGAGGGUCAUCUAUGUAAUAAA [Exclusion - Arginine A (Freestyle 2)]
(A) category 2

(Q) Tag the class for AUAACGAGUGGUGGAUAAUCCUCAUGUAAACGAGGACCGGUACGGCCGCCACUCGAUAACAUGAGGAUCACCCAUGUAAUAAUAA [|T'-M'-Trp-Ms2|_Design17]
(A) category 1

(Q) Lab log: UAUUAUCAGUCGGCCGCCACUGACACAUGAGGAUCACCCAUGUAAUUUGGGUUAUAUAGAAAAUACAGGACCGGGACUAAGGCUA [JR_ExcTryptoB_Sub014] — assign apparent KD of MS2 coat protein category
(A) category 3

(Q) # bin lookup: classify UCAUUUUUCACGGCCGCCACUUCAAGGUCCUGAGGCUGGGCAACACAUGAGGAUCACCCAUGUCGAAGGACCGGGUGAAGCUACC [theeternabot_sameState_MS2_Trp_B_34] by its apparent KD of MS2 coat protein
(A) category 3

(Q) Place this sequence in its band: CAUACUUUAGUAUGACAUGUGGGCAGUGAUACCAGAUACGAAAGUAUCCCUUGGCAGCACAACAUGAGGAUCACCCAUGUAAUUA [Theophylline A 2]
(A) category 1

(Q) Please report the category associated with CGUAUGUAGACGGCCGCCACUGGAACAAGAGGAUCACCCUUGUACAGGGUGGGACUAUCGAGAGUCAGGACCGGGUCUACAUACA [Tryp B Ex t2] , nothing else.
(A) category 3

(Q) Using the reported apparent KD of MS2 coat protein, which band applies to AACUGGAUCAGUGAUACCAGAGACAUGAGGAUCACCCAUGUACAUGAGGAUCACCCAUGUCUCCCUUGGCAGCACAGCAGGGAGC [Exclusion Theophylline B GF 17] ?
(A) category 2

(Q) Would you mind sorting AGCGACAUGCGUGAUACCAGCUACAUGAGGAUCACCCAUGUAAGUAGGAAACUACUGUGUAGCCCUUGGCAGCACAAUGCAUGUC [Exclusion - Theophylline B (Freestyle 24)] into the appropriate category?
(A) category 1

###

Hi there, I'd appreciate the recorded apparent KD of MS2 coat protein for every entry that follows.
Tested on: MS2 coat protein
test: apparent KD of MS2 coat protein; designed switch direction (-1 OFF switch, 1 ON switch): -1; higher = weaker reporter binding
protocol-conditions: input ligand: none
State just the number; it will be interpreted in nM.

(Q) What apparent KD of MS2 coat protein appears in the records for this sequence with MS2 coat protein? ACCAUGUAAGGAUAUGGUGGCUGUGAACAGGCCUGAUAAAUCUAGAAGGUACAUGAGGAUCACCCAUGUGAUGA [Eternabot (L2) Solution 84] (Eterna round: R97, puzzle: Exclusion 4)
(A) 32.7

(Q) Find apparent KD of MS2 coat protein (MS2 coat protein) for the entry GCAAGCUUAAUCAGUAUGAACAUGAGGAUCACCCAUGUAUAAGGUAAUACUUUUGGGCCCUUUAUUACUCGUCUUAU [JR_STOV1_Sub029] (Eterna round: R97, puzzle: Sensor, turn-off variant 1)
(A) 72.6

(Q) Fill in the recorded apparent KD of MS2 coat protein for this sequence, with MS2 coat protein as test system: UGCUGACGAGGAUAUACAUGAGGAUCACCCAUGUUGGUUCAGCGACGAUAGUCGCAAUGUAGAAGGCGUCAGCU [E3/9-A3] (Eterna round: R97, puzzle: Exclusion 3)
(A) 765

(Q) Given the entry CUAAAAGUCGAGGAUAUGCACCGGCUCGCUGACGCAGAAGGCGACACAUGAGGAUCACCCAUGUCGGUACGCGA [salish99_ex6_r004_451] (Eterna round: R97, puzzle: Exclusion 6) , what apparent KD of MS2 coat protein was observed with MS2 coat protein?
(A) 18.3

(Q) For the record GUCGGGCGUGUCAGGAUAUGGUAGAGUGGUCGCGGCCAGAAGGGACAUGAGGAUCACCCAUGUUCCGUGGGCAG [BmEX4 C.11] (Eterna round: R97, puzzle: Brourd's mod of Exclusion 4) , what value of apparent KD of MS2 coat protein is listed for MS2 coat protein?
(A) 19.9

(Q) Lab note: need apparent KD of MS2 coat protein with MS2 coat protein for entry CCGGCUGCUGUGAGGAUAUGCCUGUGGGUGCGUGGGUAGAAGGCACAUGAGGAUCACCCAUGUCCUGCGGUCCC [salish99_bmx4_r4_113] (Eterna round: R97, puzzle: Brourd's mod of Exclusion 4) , please look it up.
(A) 66

(Q) Identify the measured apparent KD of MS2 coat protein of CGAUGUGGAGUGAGGAUAUCGUGUUCGAAAGAACGUGAGAAGGCACAUGAGGAUCACCCAUGUGAUCCAUGUCG [Omei Ex4B A8] (Eterna round: R97, puzzle: Brourd's mod of Exclusion 4) for MS2 coat protein.
(A) 26.4

(Q) Under MS2 coat protein: apparent KD of MS2 coat protein value of AAAUUAGCAAGUAGAUCCGACAUGAGGAUCACCCAUGUAAUCUAAUAUUACGCUGCACGAAAGUGCGCUCGUCUUAG [Sensor-V1 #14] (Eterna round: R97, puzzle: Sensor, turn-off variant 1) ?
(A) 470

(Q) Which apparent KD of MS2 coat protein is reported with MS2 coat protein for this entry: GCCUCACUUGAGGAUCACCCAAGUCAGGAUAUUCACGGAACUAUGUAGCAGUUCGGCCGGAGAAGGGAUUCGGG [Areses] (Eterna round: R97, puzzle: Exclusion 1) ?
(A) 35

(Q) Form field: apparent KD of MS2 coat protein recorded for ACAUGAGGAUCACCCAUGUCCGGCUGGUCUGUUCCGGUUGUCGAGGAUAUAGUUCGGUGUUCGCGCUAGAAGGUGGGAGCUGGA [Aenatbe mod 54] (Eterna round: R96, puzzle: Exclusion NG 3) with MS2 coat protein (enter value)
(A) 136

meta.source: the supplement of paper PMC9170038
